The following compounds are shown together with reported pIC50 values.
target: 6-phosphofructo-2-kinase/fructose-2,6-bisphosphatase 3 (Homo sapiens, UniProt Q16875); experiment: Inhibition of iPFK2 (unknown origin) assessed as reduction in enzyme-mediated fructose-6-phosphate phosphorylation by measuring ATP consumption incubated for 3 hrs by luciferase-luciferin-coupled chemiluminescence assay
Sequence (Q16875 whole entry): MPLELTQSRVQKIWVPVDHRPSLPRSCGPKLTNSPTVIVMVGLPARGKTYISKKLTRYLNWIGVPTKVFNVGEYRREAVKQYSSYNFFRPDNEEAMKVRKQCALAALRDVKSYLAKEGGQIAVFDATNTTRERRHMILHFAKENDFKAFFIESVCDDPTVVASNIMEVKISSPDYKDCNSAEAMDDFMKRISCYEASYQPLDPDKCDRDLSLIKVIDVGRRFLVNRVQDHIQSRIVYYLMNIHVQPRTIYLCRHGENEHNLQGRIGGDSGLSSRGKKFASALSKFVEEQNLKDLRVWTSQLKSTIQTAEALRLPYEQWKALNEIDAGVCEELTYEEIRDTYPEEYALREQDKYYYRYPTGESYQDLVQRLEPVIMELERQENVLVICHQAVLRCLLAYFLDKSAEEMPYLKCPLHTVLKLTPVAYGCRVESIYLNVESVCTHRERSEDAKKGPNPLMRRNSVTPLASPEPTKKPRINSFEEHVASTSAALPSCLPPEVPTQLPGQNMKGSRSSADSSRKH
pIC50: −log10 of the molar value.

{"compound": "CC(=O)Nc1ccc2c(c1)C(Nc1cc(-c3ccc4ncsc4c3)nc(C)n1)CCO2 (stereo not given)", "censoring-sign": "<", "pIC50": 6.00}
{"compound": "COc1cccc(-c2cc(NC(CCO)c3cccc(OC)c3)nc(C)n2)c1 (stereo not given)", "censoring-sign": "<", "pIC50": 6.00}
{"compound": "Cc1nc(NC[C@@H](C)c2ccccc2)cc(-c2ccc3ncsc3c2)n1", "censoring-sign": "<", "pIC50": 6.00}
{"compound": "CCc1coc2ccc(-c3cc(N[C@@H](C)c4cccc(OC)c4)nc(C)n3)cc12", "censoring-sign": "<", "pIC50": 6.00}
{"compound": "Cc1nc(NC(C)c2cccc(OCc3ccn(C)n3)c2)cc(-c2ccc3occc3c2)n1 (stereo not given)", "censoring-sign": "=", "pIC50": 6.30}
{"compound": "CCOC(=O)CCCOc1cccc(C(C)Nc2cc(-c3ccc4ccn(C)c4c3)nc(C)n2)c1 (stereo not given)", "censoring-sign": "=", "pIC50": 6.30}
{"compound": "Cc1nc(N[C@@H]2CCCc3ccccc32)cc(-c2cnc3ccccc3c2)n1", "censoring-sign": "=", "pIC50": 6.30}
{"compound": "Cc1nc(N[C@@H]2CCCc3ccccc32)cc(-c2ccc(F)cc2)n1", "censoring-sign": "=", "pIC50": 6.30}
{"compound": "COc1ccc(-c2cccc(C(C)Nc3cc(-c4ccc5ncsc5c4)nc(C)n3)c2)cn1 (stereo not given)", "censoring-sign": "<", "pIC50": 6.00}
{"compound": "Cc1cccc(-c2cc(N[C@@H]3CCCc4ccccc43)nc(C)n2)c1", "censoring-sign": "=", "pIC50": 6.30}

---

Collected IC50 values appear next to each entry.
target: 6-phosphofructo-2-kinase/fructose-2,6-bisphosphatase 3 (Homo sapiens, UniProt Q16875); experiment: Inhibition of iPFK2 (unknown origin) assessed as reduction in enzyme-mediated fructose-6-phosphate phosphorylation by measuring NADH absorbance pre-incubated for 10 mins before ATP/substrate addition followed by incubation for 1 hr by UV-Visible spectrometry based iPFK-2/PPI-PFK coupled enzyme assay
measured-quantity: IC50 (nM)

{"compound": "Cc1nc(NCC2CCCN(C(=O)C3CCC3)C2)cc(-c2ccc3ncsc3c2)n1 (stereo not given)", "measured-quantity": "IC50", "censoring-sign": ">", "endpoint-result": 1000}
{"compound": "Cc1nc(NC(C)c2cccc(-c3cnn(C)c3)c2)cc(-c2ccc(C(C)C)cc2)n1 (stereo not given)", "measured-quantity": "IC50", "censoring-sign": "=", "endpoint-result": 500}
{"compound": "Cc1nc(NC(C)c2cccc(-c3cnn(CC(=O)O)c3)c2)cc(-c2ccc3ncsc3c2)n1 (stereo not given)", "measured-quantity": "IC50", "censoring-sign": "=", "endpoint-result": 500}
{"compound": "COc1cccc([C@H](C)Nc2cc(-c3ccc4ncccc4c3)nc(C)n2)c1", "measured-quantity": "IC50", "censoring-sign": ">", "endpoint-result": 1000}
{"compound": "C#CCOc1cccc(C(C)Nc2cc(-c3ccc4ncsc4c3)nc(C)n2)c1 (stereo not given)", "measured-quantity": "IC50", "censoring-sign": "=", "endpoint-result": 500}

Taken from ChEMBL document CHEMBL3727358.
